The entries below pair compounds with pIC50 values for Poly [ADP-ribose] polymerase tankyrase-1 (Homo sapiens), as found in several publications.
pIC50: −log10 of the molar value.
observed.property: pIC50

{"columns": ["compound", "system.tested", "pIC50"],
 "data": [
  ["O=C(N[C@H]1CC[C@H](C(=O)Nc2ccc(F)cc2Cl)CC1)c1cnn2ccc(N3CCCC3)nc12", "Poly [ADP-ribose] polymerase tankyrase-1 (Homo sapiens)", 7.28],
  ["CNC(=O)c1[nH]cnc1C(=O)NC12CCC(C(=O)Nc3ccc(F)cc3Cl)(CC1)CC2", "Poly [ADP-ribose] polymerase tankyrase-1 (Homo sapiens)", 6.80],
  ["Cc1cc(C)n2ncc(C(=O)N[C@H]3CC[C@H](C(=O)Nc4cc(F)c(F)cc4Cl)CC3)c2n1", "Poly [ADP-ribose] polymerase tankyrase-1 (Homo sapiens)", 7.13]
]}

(a) COc1ccn2ncc(C(=O)N[C@H]3CC[C@@]4(CCN(c5ccc(F)cc5Cl)C4=O)CC3)c2n1
(b) Cn1ccc2c(=O)[nH]c(-n3cccn3)nc21
(c) Cn1ccc2c(=O)[nH]c(-c3ccccc3)nc21
(d) Cc1c(C(C)O)cnc2c(C(=O)N[C@H]3CC[C@H](C(=O)Nc4ccc(F)cc4Cl)CC3)cnn12 (stereo partly drawn)
(e) O=c1[nH]c2c(c3ccccc13)COC(C1CCCC1)C2 (racemic)
Hey, quick one: sort these by pIC50, low to high? # format: label list in the order the request specifies
b, d, c, e, a

(A) O=C(N[C@H]1CC[C@@]2(CCN(c3ccc(F)cc3Cl)C2=O)CC1)c1cnc2cccnn12
(B) Cn1ccc2c(=O)[nH]c(-c3ccc(C#N)cc3)nc21
Which has the higher pIC50, A or B ? Write down the label of the entry you select.
A
(A: 7.66, B: 6.96)
